Tgt: hIDO1 (Homo sapiens (Human))
Assay Explanation: Assay for IDO1 enzymatic activity determination
Type: biochemical
Setup Conditions: human recombinant IDO1 enzyme, L-Trp 100 μM
Observable: pIC50
Note on units: pIC50 is unitless, being -log10 of a concentration expressed in mol/L.

[in] Any idea what its pIC50 is? The compound is O=C1CC(c2c[nH]c3ccc(Cl)cc23)C(=O)N1 (stereo not shown)
[out] 5.68

[in] Input Cc1ccc2c(C3CC(=O)NC3=O)c[nH]c2c1 (stereo not shown)
[out] 4.27

[in] Input N#Cc1ccc2c(C3CC(=O)NC3=O)c[nH]c2c1 (stereo not shown)
[out] 5.77

[in] Input O=C1CC(c2c[nH]c3cc(Br)c(F)cc23)C(=O)N1 (stereo not shown)
[out] 6.54

[in] Input COc1ccc2[nH]cc(C3CC(=O)NC3=O)c2c1 (stereo not shown)
[out] 4.28

[in] Input O=C1CC(c2c[nH]c3cc(F)ccc23)C(=O)N1 (stereo not shown)
[out] 5.47

[in] Input Cc1cc2[nH]cc(C3CC(=O)NC3=O)c2cc1F (stereo not shown)
[out] 4.34

[in] Input O=C1CC(c2c[nH]c3cc(F)c(F)cc23)C(=O)N1 (stereo not shown)
[out] 5.74

[in] Input O=C1C[C@H](c2c[nH]c3ccc(Cl)cc23)C(=O)N1
[out] 5.66

---

Tgt: hIDO1 (Homo sapiens (Human), UniProt P14902)
Sequence (P14902 whole entry): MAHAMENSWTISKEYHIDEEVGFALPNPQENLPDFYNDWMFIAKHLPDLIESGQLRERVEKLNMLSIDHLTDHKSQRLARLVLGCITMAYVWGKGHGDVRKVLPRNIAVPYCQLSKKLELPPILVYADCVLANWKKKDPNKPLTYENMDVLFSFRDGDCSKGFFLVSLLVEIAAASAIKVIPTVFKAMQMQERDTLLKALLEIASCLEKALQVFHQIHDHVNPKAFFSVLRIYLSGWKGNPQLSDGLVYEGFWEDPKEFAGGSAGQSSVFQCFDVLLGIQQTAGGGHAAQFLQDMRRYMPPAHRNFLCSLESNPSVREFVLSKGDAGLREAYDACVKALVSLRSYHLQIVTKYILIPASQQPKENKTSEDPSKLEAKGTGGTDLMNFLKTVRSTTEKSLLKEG
Assay Explanation: Cellular assay for IDO activity determination: hIDO1 P815 cells
Assay type: cell-based
Setup Conditions: P815 cells overexpressing hIDO1, 24 hours
Observable: IC50 (nM)
The reply should contain only the number, in nM.

[in] Any idea what its IC50 is? The compound is O=C1CC(c2c[nH]c3cc(F)c(F)cc23)C(=O)N1 (stereo not drawn)
[out] 260

[in] Input O=C1C[C@H](c2c[nH]c3ccccc23)C(=O)N1
[out] 240

[in] Input O=C1C[C@@H](c2c[nH]c3ccccc23)C(=O)N1
[out] 3300

[in] Input O=C1CC(c2c[nH]c3ccccc23)C(=O)N1 (stereo not drawn)
[out] 920

[in] Input O=C1CC(c2c[nH]c3cc(Cl)ccc23)C(=O)N1 (stereo not drawn)
[out] 500

[in] Input O=C1CC(c2c[nH]c3ccc(Cl)cc23)C(=O)N1 (stereo not drawn)
[out] 590

---

Tgt: hIDO1 (Homo sapiens (Human), UniProt P14902)
Assay Explanation: Assay for IDO1 enzymatic activity determination
Format: biochemical
Setup Conditions: human recombinant IDO1 enzyme, L-Trp 100 μM
Entries are grouped by IC50 into these classes: lo = under 600 nM, mid = from 600 nM up to 8000 nM, hi = 8000 nM and over

[in] In plain terms, what class is O=C1C[C@@H](c2c[nH]c3ccc(Cl)cc23)C(=O)N1 ?
[out] hi

[in] Input N#Cc1ccc2[nH]cc(C3CC(=O)NC3=O)c2c1 (stereo not drawn)
[out] hi

[in] Input O=C1CC(c2c[nH]c3cc(Cl)ccc23)C(=O)N1 (stereo not drawn)
[out] mid

[in] Input O=C1CC(c2cccc3cc(F)ccc23)C(=O)N1 (stereo not drawn)
[out] mid

[in] Input O=C1CC(c2c[nH]c3cc(Cl)c(F)cc23)C(=O)N1 (stereo not drawn)
[out] lo

[in] Input O=C1CC(c2c[nH]c3ccccc23)C(=O)N1 (stereo not drawn)
[out] mid

[in] Input O=C1CC(c2cccc3ccccc23)C(=O)N1 (stereo not drawn)
[out] hi

[in] Input O=C1CC(c2c[nH]c3ccc(Br)cc23)C(=O)N1 (stereo not drawn)
[out] lo

[in] Input Cc1ccc2[nH]cc(C3CC(=O)NC3=O)c2c1 (stereo not drawn)
[out] hi

[in] Input O=C1CC(c2c[nH]c3cc(Br)ccc23)C(=O)N1 (stereo not drawn)
[out] lo

[in] Input O=C1C[C@H](c2c[nH]c3cc(Br)c(F)cc23)C(=O)N1
[out] mid
